Target: T1, human CD24 (human, UniProt P25063 27-59, heavily glycosylated, GPI-anchored (as described in the background))
T1 construct: whole, on cells; Target of all cell-based FACS assays; also called hCD24; Cluster of differentiation 24
T1 chain (looked up): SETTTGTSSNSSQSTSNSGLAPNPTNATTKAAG
Assay: FACS, CHOK1-hCD24 cells
Assign pEC50 to each entry below.
Friendly reminder that pEC50 comes from taking -log10 of the concentration in mol/L.

Query: So what does the record say about pEC50 for ch110D4G4-hIgG4 (antibody, V domains shown, chimeric; also called chAb110D4G4) VH: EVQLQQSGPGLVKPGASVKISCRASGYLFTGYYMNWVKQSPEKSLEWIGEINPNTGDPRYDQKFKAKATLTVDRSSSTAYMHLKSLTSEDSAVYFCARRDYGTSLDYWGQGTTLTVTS VL: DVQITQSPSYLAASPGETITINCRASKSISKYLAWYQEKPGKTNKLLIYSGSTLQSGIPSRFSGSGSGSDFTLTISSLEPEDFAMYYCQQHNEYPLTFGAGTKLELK ?
Reply: 7.45

Query: So what does the record say about pEC50 for 56A7E3 (antibody, V domains shown, mouse monoclonal antibody) VH: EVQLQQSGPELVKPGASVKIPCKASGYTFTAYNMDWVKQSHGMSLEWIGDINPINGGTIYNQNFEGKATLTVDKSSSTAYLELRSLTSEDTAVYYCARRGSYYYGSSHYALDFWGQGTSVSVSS VL: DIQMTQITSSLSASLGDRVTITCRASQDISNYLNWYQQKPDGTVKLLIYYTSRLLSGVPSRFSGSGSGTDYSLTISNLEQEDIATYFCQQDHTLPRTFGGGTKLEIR ?
Reply: 8.31
